Values compiled from patent US20230263900A1.

Test: Pharmacokinetic studies of RHa-5 and RHa-15, single IV or SC administration, compared with RDV
Assay type: in vivo, animals (mammals)
Details: male, in vivo, iv, 6.17 mg/kg
Metric Name: Tmax (min)

Entry Smiles: CCC(CC)COC(=O)[C@H](C)N[P@](=O)(OC[C@H]1O[C@@](C#N)(c2ccc3c(N)ncnn23)[C@H](O)[C@@H]1O)Oc1ccccc1
Data Value: 15

----------
Test: Pharmacokinetic studies of RHa-5 and RHa-15, single IV or SC administration, compared with RDV
Type: in vivo, animals (mammals)
Settings: female, in vivo, iv, 6.17 mg/kg

Compound: CCC(CC)COC(=O)[C@H](C)N[P@](=O)(OC[C@H]1O[C@@](C#N)(c2ccc3c(N)ncnn23)[C@H](O)[C@@H]1O)Oc1ccccc1 [RDV]
Endpoint Unit: ng·h/mL
AUC(0-t): 265

----------
Test: Pharmacokinetic studies of RHa-5 and RHa-15, single IV or SC administration, compared with RDV
Format: in vivo, animals (mammals)
Details: both sexes, in vivo, iv, 6.17 mg/kg

Entry Smiles: CCC(CC)COC(=O)[C@H](C)N[P@](=O)(OC[C@H]1O[C@@](C#N)(c2ccc3c(N)ncnn23)[C@H](O)[C@@H]1O)Oc1ccccc1
Endpoint Unit: ng·h/mL
AUC(0-t): 312

----------
Experiment: Pharmacokinetic studies of RHa-5 and RHa-15, single IV or SC administration, compared with RDV
Type: in vivo, animals (mammals)
Settings: female, in vivo, iv, 6.17 mg/kg

Entry Smiles: CCC(CC)COC(=O)[C@H](C)N[P@](=O)(OC[C@H]1O[C@@](C#N)(c2ccc3c(N)ncnn23)[C@H](O)[C@@H]1O)Oc1ccccc1
Endpoint Unit: L/kg
Vd: 3920

----------
Experiment: Pharmacokinetic studies of RHa-5 and RHa-15, single IV or SC administration, compared with RDV
Assay type: in vivo, animals (mammals)
Conditions: both sexes, in vivo, iv, 6.17 mg/kg
Metric Name: AUC(0-inf) (ng·h/mL)

Entry Smiles: CCC(CC)COC(=O)[C@H](C)N[P@](=O)(OC[C@H]1O[C@@](C#N)(c2ccc3c(N)ncnn23)[C@H](O)[C@@H]1O)Oc1ccccc1
Data Value: 332

----------
Experiment: Pharmacokinetics of dendrimer-doxorubicin or doxorubicin after intravenous administration or pulmonary instillation to rats
Conditions: male, Sprague-Dawley, rat, in vivo, inhaled or intranasal, 0.6 mg

Entry Smiles: COc1cccc2c1C(=O)c1c(O)c3c(c(O)c1C2=O)C[C@@](O)(C(=O)CO)C[C@@H]3O[C@H]1C[C@H](N)[C@H](O)[C@H](C)O1
Tmax: 6 min

----------
Experiment: Pharmacokinetic studies of RHa-5 and RHa-15, single IV or SC administration, compared with RDV
Type: in vivo, animals (mammals)
Details: female, in vivo, iv, 6.17 mg/kg
Metric Name: AUC(0-inf) (ng·h/mL)

Molecule: CCC(CC)COC(=O)[C@H](C)N[P@](=O)(OC[C@H]1O[C@@](C#N)(c2ccc3c(N)ncnn23)[C@H](O)[C@@H]1O)Oc1ccccc1 [RDV]
Data Value: 293

----------
Test: Pharmacokinetic studies of RHa-5 and RHa-15, single IV or SC administration, compared with RDV
Type: in vivo, animals (mammals)
Settings: both sexes, in vivo, iv, 6.17 mg/kg
Metric Name: Cmax (ng/mL)

Entry Smiles: CCC(CC)COC(=O)[C@H](C)N[P@](=O)(OC[C@H]1O[C@@](C#N)(c2ccc3c(N)ncnn23)[C@H](O)[C@@H]1O)Oc1ccccc1
Data Value: 364

----------
Test: Pharmacokinetic studies of RHa-5 and RHa-15, single IV or SC administration, compared with RDV
Format: in vivo, animals (mammals)
Details: both sexes, in vivo, iv, 6.17 mg/kg

Entry Smiles: CCC(CC)COC(=O)[C@H](C)N[P@](=O)(OC[C@H]1O[C@@](C#N)(c2ccc3c(N)ncnn23)[C@H](O)[C@@H]1O)Oc1ccccc1
Tmax: 18 min

----------
Experiment: Pharmacokinetics of dendrimer-doxorubicin or doxorubicin after intravenous administration or pulmonary instillation to rats
Conditions: male, Sprague-Dawley, rat, in vivo, inhaled or intranasal, 0.6 mg

Entry Smiles: COc1cccc2c1C(=O)c1c(O)c3c(c(O)c1C2=O)C[C@@](O)(C(=O)CO)C[C@@H]3O[C@H]1C[C@H](N)[C@H](O)[C@H](C)O1
half-life / h: 5

----------
Test: Pharmacokinetic studies of RHa-5 and RHa-15, single IV or SC administration, compared with RDV
Format: in vivo, animals (mammals)
Details: male, in vivo, iv, 6.17 mg/kg

Entry Smiles: CCC(CC)COC(=O)[C@H](C)N[P@](=O)(OC[C@H]1O[C@@](C#N)(c2ccc3c(N)ncnn23)[C@H](O)[C@@H]1O)Oc1ccccc1
AUC(0-inf): 370 ng·h/mL

----------
Assay: Pharmacokinetic studies of RHa-5 and RHa-15, single IV or SC administration, compared with RDV
Format: in vivo, animals (mammals)
Settings: male, in vivo, iv, 6.17 mg/kg
Experimental: Studies were undertaken to investigate the pharmacokinetic (PK) profile of two Remdesivir dendrimer conjugates following single intravenous (IV) or subcutaneous (SC) administration, and to compare them with that of Remdesivir (RDV). […] The quantification range was 0.6 to 14400 ng/mL for Remdesivir and 0.6 to 14400 ng/mL for G441524. […] The maximum concentration, Cmax, and time of maximum concentration, Tmax, were determined as the maximum measured concentration and its associated time. […]

Compound: CCC(CC)COC(=O)[C@H](C)N[P@](=O)(OC[C@H]1O[C@@](C#N)(c2ccc3c(N)ncnn23)[C@H](O)[C@@H]1O)Oc1ccccc1 [RDV]
AUC(0-t), ng·h/mL: 360

----------
Test: Pharmacokinetic studies of RHa-5 and RHa-15, single IV or SC administration, compared with RDV
Type: in vivo, animals (mammals)
Settings: male, in vivo, iv, 6.17 mg/kg

Compound: CCC(CC)COC(=O)[C@H](C)N[P@](=O)(OC[C@H]1O[C@@](C#N)(c2ccc3c(N)ncnn23)[C@H](O)[C@@H]1O)Oc1ccccc1 [RDV]
Endpoint Unit: ng/mL
Cmax: 462

----------
Assay: Pharmacokinetic studies of RHa-5 and RHa-15, single IV or SC administration, compared with RDV
Assay type: in vivo, animals (mammals)
Settings: male, in vivo, iv, 6.17 mg/kg

Entry Smiles: CCC(CC)COC(=O)[C@H](C)N[P@](=O)(OC[C@H]1O[C@@](C#N)(c2ccc3c(N)ncnn23)[C@H](O)[C@@H]1O)Oc1ccccc1
Vd: 1130 L/kg
